method: Bioavailability / pharmacokinetics study, single IV and PO administration
Format: in vivo, Sprague-Dawley rats
test_settings: Sprague-Dawley, rat, plasma, iv, 1 mg/kg, IV 1 mg/kg, Mean; read-out: MRT(0-∞)

{"columns": ["molecule", "MRT inf"],
 "data": [
  ["CC(=O)Nc1ccc(C(=O)Nc2ccccc2N)cc1 [Form A]", "3.52 h"]
]}

###

method: Bioavailability / pharmacokinetics study, single IV and PO administration
Format: in vivo, Sprague-Dawley rats
test_settings: Sprague-Dawley, rat, plasma, iv, 1 mg/kg, IV 1 mg/kg, Animal No. 1; read-out: MRT(0-∞)

{"columns": ["molecule", "unit_of_measurement", "MRT inf"],
 "data": [
  ["CC(=O)Nc1ccc(C(=O)Nc2ccccc2N)cc1 [Form A]", "h", 3.46]
]}

###

method: Bioavailability / pharmacokinetics study, single IV and PO administration
Type: in vivo, Sprague-Dawley rats
test_settings: Sprague-Dawley, rat, plasma, iv, 1 mg/kg, IV 1 mg/kg, Mean
assay_metric: clearance

{"columns": ["compound", "recorded_value"],
 "data": [
  ["CC(=O)Nc1ccc(C(=O)Nc2ccccc2N)cc1 [Form A]", "5.5 mL/min/kg"]
]}

###

method: Bioavailability / pharmacokinetics study, single IV and PO administration
Assay type: in vivo, Sprague-Dawley rats
test_settings: Sprague-Dawley, rat, plasma, iv, 1 mg/kg, IV 1 mg/kg, Mean
assay_metric: AUC(0-t) (ng·h/mL)

{"columns": ["compound", "recorded_value"],
 "data": [
  ["CC(=O)Nc1ccc(C(=O)Nc2ccccc2N)cc1 [Form A]", 3050]
]}

###

method: Bioavailability / pharmacokinetics study, single IV and PO administration
Assay type: in vivo, Sprague-Dawley rats
test_settings: Sprague-Dawley, rat, plasma, iv, 1 mg/kg, IV 1 mg/kg, Animal No. 2

{"columns": ["compound", "unit_of_measurement", "half-life"],
 "data": [
  ["CC(=O)Nc1ccc(C(=O)Nc2ccccc2N)cc1 [Form A]", "h", 2.82]
]}

###

method: Bioavailability / pharmacokinetics study, single IV and PO administration
Format: in vivo, Sprague-Dawley rats
test_settings: Sprague-Dawley, rat, plasma, iv, 1 mg/kg, IV 1 mg/kg, Animal No. 1; read-out: Vz

{"columns": ["compound", "Vd / L/kg"],
 "data": [
  ["CC(=O)Nc1ccc(C(=O)Nc2ccccc2N)cc1 [Form A]", 1.31]
]}

###

method: Bioavailability / pharmacokinetics study, single IV and PO administration
Type: in vivo, Sprague-Dawley rats
test_settings: Sprague-Dawley, rat, plasma, iv, 1 mg/kg, IV 1 mg/kg, Mean; read-out: Vz
Procedure: A study was performed to determine the pharmacokinetics parameters and bioavailability of Tacedinaline Form A in Sprague-Dawley Rats, following a single intravenous injection (IV) and oral administration (PO). Formulation: IV formulation: The test article was dissolved in 10% DMSO/45% PEG400/45% Saline to yield a final concentration of 0.5 mg/ml for intravenous injection. […]

{"columns": ["molecule", "Vd"],
 "data": [
  ["CC(=O)Nc1ccc(C(=O)Nc2ccccc2N)cc1 [Form A]", "1.33 L/kg"]
]}

###

method: Bioavailability / pharmacokinetics study, single IV and PO administration
Type: in vivo, Sprague-Dawley rats
test_settings: Sprague-Dawley, rat, plasma, iv, 1 mg/kg, IV 1 mg/kg, Mean

{"columns": ["molecule", "unit_of_measurement", "half-life"],
 "data": [
  ["CC(=O)Nc1ccc(C(=O)Nc2ccccc2N)cc1 [Form A]", "min", 169]
]}

###

method: Bioavailability / pharmacokinetics study, single IV and PO administration
Format: in vivo, Sprague-Dawley rats
test_settings: Sprague-Dawley, rat, plasma, po, 1 mg/kg, PO 1 mg/kg, Animal No. 2; read-out: F (Bioavailability)

{"columns": ["compound", "bioavailability (%)"],
 "data": [
  ["CC(=O)Nc1ccc(C(=O)Nc2ccccc2N)cc1 [Form A]", 132]
]}

###

method: Bioavailability / pharmacokinetics study, single IV and PO administration
Type: in vivo, Sprague-Dawley rats
test_settings: Sprague-Dawley, rat, plasma, po, 1 mg/kg, PO 1 mg/kg, Animal No. 2; read-out: MRT(0-∞)

{"columns": ["compound", "MRT inf [h]"],
 "data": [
  ["CC(=O)Nc1ccc(C(=O)Nc2ccccc2N)cc1 [Form A]", 4.06]
]}

###

method: Bioavailability / pharmacokinetics study, single IV and PO administration
Assay type: in vivo, Sprague-Dawley rats
test_settings: Sprague-Dawley, rat, plasma, po, 1 mg/kg, PO 1 mg/kg, Mean

{"columns": ["compound", "AUC(0-inf)"],
 "data": [
  ["CC(=O)Nc1ccc(C(=O)Nc2ccccc2N)cc1 [Form A]", "3880 ng·h/mL"]
]}

###

method: Bioavailability / pharmacokinetics study, single IV and PO administration
Type: in vivo, Sprague-Dawley rats
test_settings: Sprague-Dawley, rat, plasma, oral, 1 mg/kg, rats; read-out: bioavailability

{"columns": ["molecule", "bioavailability [%]"],
 "data": [
  ["CC(=O)Nc1ccc(C(=O)Nc2ccccc2N)cc1 [Form A]", 100]
]}

###

method: Bioavailability / pharmacokinetics study, single IV and PO administration
Type: in vivo, Sprague-Dawley rats
test_settings: Sprague-Dawley, rat, plasma, po, 1 mg/kg, PO 1 mg/kg, Animal No. 2
assay_metric: AUC(0-inf) (ng·h/mL)

{"columns": ["molecule", "recorded_value"],
 "data": [
  ["CC(=O)Nc1ccc(C(=O)Nc2ccccc2N)cc1 [Form A]", 4030]
]}

###

method: Bioavailability / pharmacokinetics study, single IV and PO administration
Assay type: in vivo, Sprague-Dawley rats
test_settings: Sprague-Dawley, rat, plasma, po, 1 mg/kg, PO 1 mg/kg, Mean

{"columns": ["molecule", "Cmax / ng/mL"],
 "data": [
  ["CC(=O)Nc1ccc(C(=O)Nc2ccccc2N)cc1 [Form A]", 734]
]}

###

method: Bioavailability / pharmacokinetics study, single IV and PO administration
Format: in vivo, Sprague-Dawley rats
test_settings: Sprague-Dawley, rat, plasma, iv, 1 mg/kg, IV 1 mg/kg, Animal No. 1

{"columns": ["compound", "Cmax [ng/mL]"],
 "data": [
  ["CC(=O)Nc1ccc(C(=O)Nc2ccccc2N)cc1 [Form A]", 799]
]}

###

method: Bioavailability / pharmacokinetics study, single IV and PO administration
Assay type: in vivo, Sprague-Dawley rats
test_settings: Sprague-Dawley, rat, plasma, po, 1 mg/kg, PO 1 mg/kg, Mean
assay_metric: AUC(0-t) (ng·h/mL)

{"columns": ["molecule", "unit_of_measurement", "recorded_value"],
 "data": [
  ["CC(=O)Nc1ccc(C(=O)Nc2ccccc2N)cc1 [Form A]", "ng·h/mL", 3860]
]}

###

method: Bioavailability / pharmacokinetics study, single IV and PO administration
Type: in vivo, Sprague-Dawley rats
test_settings: Sprague-Dawley, rat, plasma; PO 1 mg/kg, Animal No. 1

{"columns": ["molecule", "unit_of_measurement", "Tmax"],
 "data": [
  ["CC(=O)Nc1ccc(C(=O)Nc2ccccc2N)cc1 [Form A]", "h", 2]
]}

###

method: Bioavailability / pharmacokinetics study, single IV and PO administration
Format: in vivo, Sprague-Dawley rats
test_settings: Sprague-Dawley, rat, plasma, iv, 1 mg/kg, IV 1 mg/kg, Animal No. 2
Description: A study was performed to determine the pharmacokinetics parameters and bioavailability of Tacedinaline Form A in Sprague-Dawley Rats, following a single intravenous injection (IV) and oral administration (PO). Formulation: IV formulation: The test article was dissolved in 10% DMSO/45% PEG400/45% Saline to yield a final concentration of 0.5 mg/ml for intravenous injection. […]

{"columns": ["compound", "AUC(0-inf) (ng·h/mL)"],
 "data": [
  ["CC(=O)Nc1ccc(C(=O)Nc2ccccc2N)cc1 [Form A]", 3010]
]}

###

method: Bioavailability / pharmacokinetics study, single IV and PO administration
Assay type: in vivo, Sprague-Dawley rats
test_settings: Sprague-Dawley, rat, plasma, iv, 1 mg/kg, IV 1 mg/kg, Animal No. 1

{"columns": ["compound", "AUC(0-t) [ng·h/mL]"],
 "data": [
  ["CC(=O)Nc1ccc(C(=O)Nc2ccccc2N)cc1 [Form A]", 3090]
]}

###

method: Bioavailability / pharmacokinetics study, single IV and PO administration
Format: in vivo, Sprague-Dawley rats
test_settings: Sprague-Dawley, rat, plasma, po, 1 mg/kg, PO 1 mg/kg, Mean; read-out: F (Bioavailability)
Experimental: A study was performed to determine the pharmacokinetics parameters and bioavailability of Tacedinaline Form A in Sprague-Dawley Rats, following a single intravenous injection (IV) and oral administration (PO). Formulation: IV formulation: The test article was dissolved in 10% DMSO/45% PEG400/45% Saline to yield a final concentration of 0.5 mg/ml for intravenous injection. […]
assay_metric: bioavailability (%)

{"columns": ["compound", "recorded_value"],
 "data": [
  ["CC(=O)Nc1ccc(C(=O)Nc2ccccc2N)cc1 [Form A]", 127]
]}
